These entries and their values trace back to PubChem BioAssay (NCI).

Tested on: MDA-MB-468 breast
Test: NCI-60 one-dose screen, 48 h (100 = growth as untreated, 0 = no growth, -100 = all killed)
Settings: 10 µM unless noted
This is part of a sample that, as a whole, favours compounds with a hit. Of some 83,000 tested, about 20% had one in any assay. Calls of active or inactive are those of the source. Rule for the calls: active = growth percent below 10; inactive = the rest.
Here the recorded growth is given for each entry.

# compound, target of assay, parameter, measurement
rows = [
    ("COc1cc(C2CC(c3cc(OC)c(OCCCOc4ccc(-n5c(/C=C/c6ccccc6)nc6ccccc6c5=O)cc4)c(OC)c3)=NO2)cc(OC)c1OC (configuration not stated)", "MDA-MB-468 breast", "growth", "104% (inactive)"),
    ("NS(=O)(=O)c1ccc(CCN2C(=O)C3C(C2=O)C2(Cl)C(Cl)=C(Cl)C3(Cl)C2(Cl)Cl)cc1 (configuration not stated)", "MDA-MB-468 breast", "growth", "109% (inactive)"),
    ("O=C1NC(=Nc2ccc(O)cc2)S/C1=C\\c1cccc(Cl)c1", "MDA-MB-468 breast", "growth", "44.5% (inactive)"),
    ("Cc1ccc(C2=NN(c3ccc(S(N)(=O)=O)cc3)C(c3cn(-c4ccccc4)nc3-c3ccccc3)C2)cc1 (configuration not stated)", "MDA-MB-468 breast", "growth", "112% (inactive)"),
]

q: Check the records and state growth for Cc1cc(Nc2ccc(Cl)c(Cl)c2)nc(N)n1
a: 54.5% (inactive)

q: Check the records and state growth for CCN(CC)CCOc1ccc(-c2c(-c3ccccc3)c(=O)oc3ccccc23)cc1
a: 72.9% (inactive)

q: Check the records and state growth for C#Cc1cccc(Nc2ncnc3ccc(-c4cncc(NS(C)(=O)=O)c4)cc23)c1
a: -40.3% (active)

q: Check the records and state growth for COc1ccc(-c2cn(-c3ccccc3)c(-c3ccccc3)n2)cc1OC
a: 9.76% (active)

q: Check the records and state growth for O=C(CSc1nc2ccc([N+](=O)[O-])cc2[nH]1)Nc1cccc(Cl)c1
a: -10.4% (active)

q: Check the records and state growth for COC(=O)[C@@H]1CCCN1C(=O)[C@@H]1CCCN1C(=O)[C@H](Cc1ccccc1)NC(=S)Nc1cc(C(F)(F)F)cc(C(F)(F)F)c1
a: 89% (inactive)

---

Tested on: MDA-MB-468 breast
Test: NCI-60 one-dose screen, 48 h
Details: 10 µM unless noted
Procedure: Growth inhibition of the MDA-MB-468 human Breast tumor cell line is measured as a screen for anti-cancer activity. Cells are grown in 96 well plates and exposed to the test compound for 48 hours. Compounds are tested at a single concentration, which is 10^-5 M for most compounds. The reported endpoint is percent growth (GI% or GIPRCNT), where numbers from 0 - 100% represent growth inhibition, and numbers from -100% - 0 represent cell death. […]
This is part of a sample that, as a whole, favours compounds with a hit. Of some 83,000 tested, about 20% had one in any assay. Activity calls are given as the source filed them. How the source made its calls: active means growth percent below 10; inactive means the rest.
Lab note: assign the record to one of 1 for active, -1 for inactive

Some entries whose results are on file:
# compound, target of assay, label class
data = [
    ("O=C1Nc2ccc(Br)cc2/C1=N\\c1nnc(-c2ccc(Cl)cc2)o1", "MDA-MB-468 breast", -1),
    ("Clc1ccc(-n2ncc3c(NCCCN4CCOCC4)ncnc32)cc1", "MDA-MB-468 breast", -1),
    ("O=C(CN1CCCCC1)Nc1ccc2oc(=O)ccc2c1", "MDA-MB-468 breast", -1),
    ("O=S(c1ccccc1)c1ccc2nnnn2n1 (configuration not stated)", "MDA-MB-468 breast", -1),
    ("CCCCCCCCn1ccc2cc(NC(=O)CN3CCN(c4cc(C)nc(Cl)n4)CC3)ccc21", "MDA-MB-468 breast", -1),
    ("CCOC(=O)CSc1nc2sc3c(c2c(=O)n1-c1ccccc1)CCCCC3", "MDA-MB-468 breast", -1),
    ("Clc1ccc(-c2nnc(Cn3ccnc3)o2)cc1", "MDA-MB-468 breast", -1),
    ("Cc1ccc2c(c1)C(=O)c1c-2c(OCCCN(C)C)nc2ccccc12", "MDA-MB-468 breast", -1),
    ("C/C(=N/Nc1nc2ccccc2n1C)c1ccccn1", "MDA-MB-468 breast", 1),
    ("COC(=O)/C(CCC=C(C)C)=C1\\[C@@H](OC(C)=O)C[C@@]2(C)[C@H]1CC(=O)N[C@H]1[C@@]3(C)CCNC(=O)[C@@H](C)[C@@H]3CC[C@@]12C", "MDA-MB-468 breast", -1),
]

q: What is the recorded call for this compound in the test? O=C(CI)NC(=O)NC(=O)NCc1ccccc1
a: -1

q: What is the recorded call for this compound in the test? CS(=O)(=O)c1ncc(-c2ccccc2)cn1
a: -1

---

Test system: MDA-MB-468 breast
Test: NCI-60 one-dose screen, 48 h (100 = growth as untreated, 0 = no growth, -100 = all killed)
Details: 10 µM unless noted
Compounds without any hit were thinned out: in the full panel of roughly 83,000, 20% have a hit. Activity calls are given as the source filed them. How the source made its calls: active means growth percent below 10; inactive means the rest.
Here the recorded growth is given for each entry.

Some solved cases for reference:
# compound, growth
rows = [
    ("COC(=O)Nc1nc2ccc(C(=O)c3cccs3)cc2[nH]1", "5.96% (active)"),
    ("CCN1CCN(CC(=O)Nc2nc3ccc(NCc4ccc(Cl)cc4)cc3s2)CC1", "47.8% (inactive)"),
    ("CCOC(=O)c1nnn(Cc2cc(=O)oc3c2ccc2ccccc23)c1C", "103% (inactive)"),
    ("CC(=O)NC1(C(=O)O)CCCC1", "116% (inactive)"),
    ("Clc1ccc2c(c1)C(c1c[nH]c3ccccc13)(c1c[nH]c3ccccc13)CCO2", "86.5% (inactive)"),
]

q: Check the records and state growth for Cc1cccc(C[C@H](NC(=O)Nc2ccc(Cl)cc2F)C(=O)N[C@@H]2C(=O)N3C[C@H](OC(=O)CCN(C)C)C[C@H]3C(=O)N3CCCC[C@H]3C(=O)N[C@@H](C)C(=O)N3C[C@H](C)C[C@H]3C(=O)O[C@H]2C)c1
a: 9.39% (active)

q: Check the records and state growth for CCC1=C[C@@H]2CN(C1)Cc1c([nH]c3ccccc13)[C@@](C(=O)OC)(c1cc3c(cc1OC)N(C=O)[C@H]1[C@@](O)(C(=O)OC)[C@H](OC(C)=O)[C@]4(CC)[C@@H]5C[C@@H]5CN5CC[C@]31[C@@H]54)C2
a: 25.2% (inactive)

q: Check the records and state growth for CN1CCN(C(=O)OCc2nc3c(N4CCOCC4)nc(Cl)nc3n2C)CC1
a: -69.4% (active)

q: Check the records and state growth for Cc1cc(N(CCCNc2ccnc3cc(Cl)ccc23)Cc2ccco2)nc(N2CCOCC2)n1
a: 80.3% (inactive)

q: Check the records and state growth for COc1cc(-c2nc(-c3nc4ccccc4[nH]3)cc3c2[nH]c2ccccc23)cc(OC)c1OC
a: 42.1% (inactive)

q: Check the records and state growth for Cc1nn(-c2ccccc2)c2ncc3c(c12)C(=O)N(Cc1ccccc1)C3=O
a: 77.8% (inactive)

q: Check the records and state growth for CCCc1cc(=O)oc2c3c(c4c(c12)OC(C)(C)CC4)OC(C)[C@H](C)[C@@H]3O (some centres undefined)
a: 108% (inactive)

---

Test system: MDA-MB-468 breast
Experiment: NCI-60 one-dose screen, 48 h
Details: 10 µM unless noted
The panel holds about 83,000 compounds, 20% with a hit somewhere; the sample as a whole holds those more often. The source made the active and inactive calls. How the source made its calls: active means growth percent below 10; inactive means the rest.
Lab note: assign the record to one of 1 (yes) (active), 0 (no) (inactive)

Some entries whose results are on file:
# compound, label class
records = [
    ("CC1(C)S[C@@H]2[C@H](NC(=O)[C@H](C(=O)O)c3cccs3)C(=O)N2[C@H]1C(=O)O", "0 (no)"),
    ("O=C(N/N=C/c1ccc(Br)s1)c1[nH]c2ccc(Br)cc2c1-c1ccccc1", "1 (yes)"),
    ("C/C(=C(\\c1ccc(O)cc1)c1ccc(OCCN2CCCCCC2)cc1)c1ccc(Cl)cc1", "1 (yes)"),
    ("NC(N)=Nc1ccc(Oc2cccc(Oc3ccc(Cl)c(C(F)(F)F)c3)c2)cn1", "1 (yes)"),
    ("O=S(=O)(NC1c2ccccc2C[C@H]1O)c1ccc(Cl)cc1Cl (stereo not given in full)", "0 (no)"),
]

q: What is the recorded call for this compound in the test? CC(=O)c1c[nH]c2ccc(-c3ccnc(Nc4ccc(NC(=O)C5CCCC5)c(CN5CCOCC5)c4)n3)cc12
a: 1 (yes)

q: What is the recorded call for this compound in the test? C#Cc1nc(C2=C(C)C(=N\O)/C(=N/O)C2)cs1
a: 0 (no)

q: What is the recorded call for this compound in the test? CCOC(=O)C1=C(C)N2C(=NC3=C(CCCC/C3=C\c3ccccc3)C2c2ccccc2)S1 (stereo not given)
a: 0 (no)

q: What is the recorded call for this compound in the test? Cc1ccc(-c2cc(C(=O)Nc3ccc(S(=O)(=O)N4CCCCC4)cc3)[nH]n2)c(O)c1
a: 0 (no)

q: What is the recorded call for this compound in the test? CCOc1ccc(Nc2nc3c(s2)C(=O)c2ccccc2C3=O)cc1
a: 0 (no)
